Ki reference
molecular target: humanDOR (Homo sapiens); experiment: Receptor binding with [3H]diprenorphine at human DOR; conditions: PZM analogs; (n) = number of independent experiments; read-out: binding affinity Ki hDOR
Your answer should be a plain number; it is taken to be in µM.

Query: Give the measured Ki for C[C@H](NC(=O)NC[C@H](Cc1ccc(O)cc1)N(C)C)c1ccccc1 (single isomer, unassigned)
Reply: 0.59

Query: Give the measured Ki for CN(CCc1ccccc1)C(=O)NC[C@H](Cc1ccc(O)cc1)N(C)C [drawing 504]
Reply: 1.2

Query: Give the measured Ki for CN(C)[C@@H](CNC(=O)NCCc1ccsc1)Cc1ccc(O)cc1
Reply: 11

Query: Give the measured Ki for C[C@@H](Cc1csc2ccccc12)NC(=O)NC[C@H](Cc1ccc(O)cc1)N(C)C [drawing 521]
Reply: 0.11

Query: Give the measured Ki for COc1ccccc1CCNC(=O)NCC(Cc1ccc(O)cc1)N(C)C (stereo not shown)
Reply: 0.15

----------
target: hKOR (Homo sapiens); experiment: Radioligand binding studies (Example 6) at hKOR
Sequence (P41145 whole entry): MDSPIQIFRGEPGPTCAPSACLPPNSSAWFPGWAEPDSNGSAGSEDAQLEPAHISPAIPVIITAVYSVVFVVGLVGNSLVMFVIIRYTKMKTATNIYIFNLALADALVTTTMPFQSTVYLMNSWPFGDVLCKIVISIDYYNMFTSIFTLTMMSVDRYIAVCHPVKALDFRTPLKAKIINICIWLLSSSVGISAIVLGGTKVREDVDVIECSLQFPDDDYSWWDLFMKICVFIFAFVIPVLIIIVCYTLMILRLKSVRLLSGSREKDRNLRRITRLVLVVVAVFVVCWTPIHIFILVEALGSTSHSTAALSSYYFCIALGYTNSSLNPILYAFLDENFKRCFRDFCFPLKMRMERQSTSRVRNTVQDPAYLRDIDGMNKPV
The label Satisfied is reserved for Ki strictly under 200 nM; Not satisfied covers values equal to or above it.

Here are 5 compounds together with their reported answers.
C[C@@H](Cc1ccsc1)Nc1c(NC[C@H](Cc2ccc(O)cc2)N(C)C)c(=O)c1=O [DD251] : Satisfied
C[C@@H](Cc1ccsc1)NC(=O)NC[C@@H]1Cc2ccc(O)cc2CN1C [DD118] : Satisfied
COc1cc(F)ccc1CCNC(=O)NC[C@H](Cc1ccc(O)cc1)N(C)C [DD214] : Satisfied
COc1ccc(C[C@@H](CNC(=O)N[C@@H](C)Cc2ccsc2)N(C)C)cc1 [DD222] : Not satisfied
CN(C)[C@H](CNc1nc(=O)cc(Cc2ccccc2)[nH]1)Cc1ccc(O)cc1 [DD258] : Not satisfied

Query: In plain terms, does CN(C)[C@H](CNc1c(NCCc2ccccc2)c(=O)c1=O)Cc1ccc(O)cc1 [DD247] come in under 200 nM for Ki?
Reply: Not satisfied

Query: In plain terms, does CC(=O)Oc1ccc(C[C@@H](CNC(=O)N[C@@H](C)Cc2ccsc2)N(C)C)cc1 [DD230] come in under 200 nM for Ki?
Reply: Not satisfied

----------
target: hMOR (Homo sapiens, UniProt P35372); experiment: Receptor binding with [3H]diprenorphine at hMOR; details: PZM analogs; (n) = number of independent experiments; read-out: binding affinity Ki hMOR
log10 Ki reference
Heads up: the numbers are on a log10 scale; they represent Ki in nM.

Some compounds with recorded log10 Ki:
CN(CC1CC1)[C@H](CNC(=O)NCCc1ccccc1)Cc1ccc(O)cc1 [drawing 507] : 2.88
CN[C@H](CNC(=O)NCCc1ccccc1)Cc1ccc(O)cc1 : 2.46
CN(C)[C@H](CNC(=O)NCCCN1C(=O)C=CC1=O)Cc1ccc(O)cc1 : 2.58

Query: Quote log10 Ki with test system hMOR (Homo sapiens, UniProt P35372) for CN(C)[C@H](CNC(=O)NC(C)(C)Cc1ccsc1)Cc1cccc(O)c1 [drawing 532]
Reply: 1.40

----------
target: δOR (Homo sapiens, UniProt P41143); construct: NIMH Psychoactive Drug Screening Program (PDSP); assay: Radioligand binding at δOR (PDSP)
Sequence (P41143 whole entry): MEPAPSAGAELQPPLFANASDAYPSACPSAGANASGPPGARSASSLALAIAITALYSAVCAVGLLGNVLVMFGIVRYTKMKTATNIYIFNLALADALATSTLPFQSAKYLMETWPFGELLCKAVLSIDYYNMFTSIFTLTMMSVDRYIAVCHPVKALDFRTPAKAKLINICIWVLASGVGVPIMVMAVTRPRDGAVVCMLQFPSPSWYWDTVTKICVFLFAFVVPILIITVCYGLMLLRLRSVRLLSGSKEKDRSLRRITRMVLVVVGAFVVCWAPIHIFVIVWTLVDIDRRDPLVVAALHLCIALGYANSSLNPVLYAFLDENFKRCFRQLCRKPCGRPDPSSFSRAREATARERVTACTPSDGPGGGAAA
value.type: Ki (nM)
Your answer should be a plain number; it is taken to be in nM.

Query: Give the measured Ki for C[C@@H](Cc1ccsc1)NC(=O)NC[C@H](Cc1ccc(O)cc1)N(C)C [PZM21]
Reply: 506

----------
biological target: μOR (Homo sapiens, UniProt P35372); test: β-arrestin recruitment at μOR with GRK2 co-expression; type: cell-based
Sequence (P35372 whole entry): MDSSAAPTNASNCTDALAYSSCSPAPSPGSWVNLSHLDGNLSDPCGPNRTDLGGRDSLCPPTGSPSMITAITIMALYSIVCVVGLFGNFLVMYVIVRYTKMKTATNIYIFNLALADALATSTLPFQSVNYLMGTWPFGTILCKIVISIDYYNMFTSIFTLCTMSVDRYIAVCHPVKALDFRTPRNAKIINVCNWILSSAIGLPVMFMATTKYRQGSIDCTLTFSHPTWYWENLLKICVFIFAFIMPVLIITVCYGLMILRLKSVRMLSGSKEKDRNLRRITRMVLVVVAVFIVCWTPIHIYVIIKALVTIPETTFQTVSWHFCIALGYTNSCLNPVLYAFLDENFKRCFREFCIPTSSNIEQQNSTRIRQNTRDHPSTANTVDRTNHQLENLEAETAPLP
Arrestin + GRK2 Emax % DAMGO reference
Your answer should be a plain number; it is taken to be in % DAMGO.

Some compounds with recorded Arrestin + GRK2 Emax % DAMGO:
C[C@H](NC(=O)NC[C@H](Cc1ccc(O)cc1)N(C)C)c1ccccc1 [DD 53LS] : 33
CN(C)[C@H](CNC(=O)NC(C)(C)Cc1ccccc1)Cc1ccc(O)cc1 [DD 33L] : 14
C[C@@H](NC(=O)[C@@H](N)Cc1ccc(O)cc1)C(=O)NCC(=O)N(C)[C@@H](Cc1ccccc1)C(=O)NCCO [DAMGO, reference compound] : 100
CN(C)[C@H](CNC(=O)NC(C)(C)Cc1ccsc1)Cc1ccc(O)cc1 [DD 32L] : 24
C[C@@H](Cc1csc2ccccc12)NC(=O)NC[C@H](Cc1ccc(O)cc1)N(C)C [DD63L-B] : 92
CN(CCc1ccccc1)C(=O)NC[C@H](Cc1ccc(O)cc1)N(C)C : 61
CN(C[C@H](Cc1ccc(O)cc1)N(C)C)C(=O)NCCc1ccccc1 : 118

Now examine the next entry.
Query: Give the measured Arrestin + GRK2 Emax % DAMGO for CC[C@@H](Cc1ccsc1)NC(=O)NC[C@H](Cc1ccc(O)cc1)N(C)C [DD88B]
Reply: 45

----------
biological target: δOR (Homo sapiens, UniProt P41143); construct: NIMH Psychoactive Drug Screening Program (PDSP); test: Gi/o Glosensor assay at δOR; type: cell-based; conditions: ND = not detectable
value.type: EC50 (nM)
Your answer should be a plain number; it is taken to be in nM.

Query: Give the measured EC50 for C[C@@H](Cc1ccsc1)NC(=O)NC[C@H](Cc1ccc(O)cc1)N(C)C [PZM21]
Reply: 1900

----------
target: μOR (Homo sapiens, UniProt P35372); test: cell-based; assay type: cell-based
value.type: Gi/o Emax % DAMGO

C[C@@H](Cc1csc2ccccc12)NC(=O)NC[C@H](Cc1ccc(O)cc1)N(C)C [DD63L-B] : 88 % DAMGO
CN(C)[C@H](CNC(=O)NCCc1ccsc1)Cc1ccc(O)cc1 [DD 16] : 60 % DAMGO
CN(C)[C@H](CNC(=O)NC(C)(C)Cc1ccccc1)Cc1ccc(O)cc1 [DD 33L] : 61 % DAMGO
CN(C)[C@H](CNC(=O)NCCc1ccccc1)Cc1ccc(O)cc1 [DD90] : 76 % DAMGO
CN(CCc1ccccc1)C(=O)N(C)C[C@H](Cc1ccc(O)cc1)N(C)C [DD109] : No Activity

Query: Give the measured Gi/o Emax % DAMGO for CN(C[C@H](Cc1ccc(O)cc1)N(C)C)C(=O)NCCc1ccccc1 [DD108]
Reply: 86 % DAMGO

Query: Give the measured Gi/o Emax % DAMGO for C[C@H](NC(=O)NC[C@H](Cc1ccc(O)cc1)N(C)C)c1ccccc1 [DD 53LS]
Reply: 63 % DAMGO

Query: Give the measured Gi/o Emax % DAMGO for C[C@@H](Cc1ccsc1)NC(=O)NC[C@H](Cc1cccc(O)c1)N(C)C [DD 47LS]
Reply: 73 % DAMGO

Query: Give the measured Gi/o Emax % DAMGO for C[C@@H](Cc1ccccc1)NC(=O)NC[C@H](Cc1ccc(O)cc1)N(C)C [DD 61L-B]
Reply: 84 % DAMGO

----------
target: μOR (Homo sapiens, UniProt P35372); experiment: β-arrestin recruitment at μOR with GRK2 co-expression; type: cell-based; details: read-out: Arrestin + GRK2 EC50
pEC50: −log10 of the molar value.
pEC50 of 7 or higher: 1.0. Under 7: 0.0.

Here are 5 compounds together with their reported answers.
CN(CCc1ccccc1)C(=O)NC[C@H](Cc1ccc(O)cc1)N(C)C : 0.0
C[C@@H](Cc1ccsc1)NC(=O)NC[C@H](Cc1ccc(O)c(CO)c1)N(C)C : 0.0
CN(C[C@H](Cc1ccc(O)cc1)N(C)C)C(=O)NCCc1ccccc1 : 0.0
C[C@@H](Cc1ccsc1)NC(=O)NC[C@H](Cc1cccc(O)c1)N(C)C [DD 47LS] : 0.0
C[C@@H](Cc1ccccc1)NC(=O)NC[C@H](Cc1ccc(O)cc1)N(C)C [DD 61L-B] : 0.0

Please find the next compound below.
Query: Please check the record CN(C)[C@H](CNC(=O)NC(C)(C)Cc1ccsc1)Cc1ccc(O)cc1 [DD 32L] and state if its pEC50 is at or above 7.
Reply: 1.0

----------
biological target: μOR (Homo sapiens, UniProt P35372); test: β-arrestin recruitment at μOR without GRK2; assay type: cell-based
The label class 1 is reserved for Arrestin Emax % DAMGO strictly under 20 % DAMGO; class 0 covers values equal to or above it.

CN(C)[C@H](CNC(=S)NCCc1ccsc1)Cc1ccc(O)cc1 : class 1
CC[C@@H](Cc1ccsc1)NC(=O)NC[C@H](Cc1ccc(O)cc1)N(C)C [DD88B] : class 1
C[C@@H](Cc1ccccc1)NC(=O)NC[C@H](Cc1ccc(O)cc1)N(C)C [DD 61L-B] : class 1
CN(CCc1ccccc1)C(=O)NC[C@H](Cc1ccc(O)cc1)N(C)C : class 0

Please find the next compound below.
Query: In plain terms, does C[C@@H](Cc1ccsc1)NC(=O)NC[C@H](Cc1ccc(O)cc1)N(C)C come in under 20 % DAMGO for Arrestin Emax % DAMGO?
Reply: class 1
